Experimental Endpoint: melting point

Some solved entries appear below for comparison.
>>> observed("O=C(c1cccc(-c2ccc(O)cc2)c1)N1CCCCCC1")
"184 to 185 °C"
>>> observed("Cc1ccc(-c2cccc(C(=O)N3CCCCCC3)c2)cc1F")
"106 to 108 °C"
>>> observed("CC1CCN(C(=O)c2cccc(-c3ccc(C(N)=O)cc3)c2)CC1")
"188 to 190 °C"
>>> observed("Cc1ccc(-c2cccc(C(=O)N3CCCCCC3)c2)cc1")
"109 to 111 °C"
>>> observed("Cc1ccc(-c2cccc(C(=O)N3CCC[C@H]3C(N)=O)c2)cc1F")
"73 to 75 °C"

Here is the next item to consider.
Query: melting point; subject: "O=C(c1cccc(-c2ccc(Cl)cc2)c1)N1CCCCCC1"
116 to 117 °C

====

Attribute: 11β-HSD1 Residual activity, % of control at 100 nM
Subject Of Test: recombinant human 11β-HSD1 (Homo sapiens, UniProt P28845)
Construct: expressed in transfected cells
Sequence (P28845 whole entry): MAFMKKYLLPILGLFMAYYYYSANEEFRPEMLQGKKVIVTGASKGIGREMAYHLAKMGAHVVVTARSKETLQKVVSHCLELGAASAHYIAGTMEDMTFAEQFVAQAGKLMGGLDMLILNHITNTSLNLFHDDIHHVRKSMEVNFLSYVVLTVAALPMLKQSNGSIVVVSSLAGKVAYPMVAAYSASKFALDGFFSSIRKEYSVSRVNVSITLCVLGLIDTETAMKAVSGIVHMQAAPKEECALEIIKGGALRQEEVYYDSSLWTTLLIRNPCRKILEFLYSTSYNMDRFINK
Protocol Description: 11β-HSD1 enzyme activity in cell lysates (cortisone to cortisol, radiolabeled tracer, TLC)
Assay type: biochemical
Experimental Conditions: 100 nM compound; lysates of HEK-293 cells; 200 nM cortisone; mean of three experiments

Some solved entries appear below for comparison.
>>> observed("CC1CCN(C(=O)c2cccc(-c3ccccc3Cl)c2)CC1")
"49 % of control"
>>> observed("CC1CCN(C(=O)c2cccc(-c3ccc(Cl)cc3)c2)CC1")
"58 % of control"
>>> observed("Cc1ccc(-c2cccc(C(=O)N3CCC(C)CC3)c2)cc1")
"52 % of control"
>>> observed("CC1CCN(C(=O)c2cccc(-c3cccc(C(N)=O)c3)c2)CC1 [10b]")
"89 % of control"
>>> observed("Cc1ccc(-c2cccc(C(=O)N3CCC[C@H]3C(N)=O)c2)cc1F")
"> 90 % of control"

Request - read-out 11β-HSD1 Residual activity, % of control at 100 nM | tested on recombinant human 11β-HSD1 (Homo sapiens, UniProt P28845) | compound "Cc1ccc(-c2cccc(C(=O)N3CCCC(C)(C)C3)c2)cc1F"
60 % of control

Request - read-out 11β-HSD1 Residual activity, % of control at 100 nM | tested on recombinant human 11β-HSD1 (Homo sapiens, UniProt P28845) | compound O=C(c1cccc(-c2ccccc2)c1)N1CCCCCC1 [12e]
21 % of control

Request - read-out 11β-HSD1 Residual activity, % of control at 100 nM | tested on recombinant human 11β-HSD1 (Homo sapiens, UniProt P28845) | compound "NC(=O)[C@@H]1CCCN1C(=O)c1cccc(-c2ccccc2Cl)c1"
> 90 % of control

Request - read-out 11β-HSD1 Residual activity, % of control at 100 nM | tested on recombinant human 11β-HSD1 (Homo sapiens, UniProt P28845) | compound "O=C(c1cccc(-c2ccc(Cl)cc2)c1)N1CCCCCC1"
50 % of control

Request - read-out 11β-HSD1 Residual activity, % of control at 100 nM | tested on recombinant human 11β-HSD1 (Homo sapiens, UniProt P28845) | compound "Cc1ccc(-c2cccc(C(=O)N3CCCCCC3)c2)cn1"
30 % of control

Request - read-out 11β-HSD1 Residual activity, % of control at 100 nM | tested on recombinant human 11β-HSD1 (Homo sapiens, UniProt P28845) | compound "Cc1ccc(-c2cccc(C(=O)N3CCC(C)CC3)c2)cn1"
36 % of control

Request - read-out 11β-HSD1 Residual activity, % of control at 100 nM | tested on recombinant human 11β-HSD1 (Homo sapiens, UniProt P28845) | compound "Cc1ccc(-c2cccc(C(=O)N3CCC(C)CC3)c2)cc1F"
44 % of control

Request - read-out 11β-HSD1 Residual activity, % of control at 100 nM | tested on recombinant human 11β-HSD1 (Homo sapiens, UniProt P28845) | compound "CC1CCN(C(=O)c2cccc(-c3ccc(O)cc3)c2)CC1"
38 % of control

Request - read-out 11β-HSD1 Residual activity, % of control at 100 nM | tested on recombinant human 11β-HSD1 (Homo sapiens, UniProt P28845) | compound "CC1CCN(C(=O)c2cccc(-c3ccc(C(N)=O)cc3)c2)CC1"
65 % of control
